- assayed system: T1, AD4 polypeptide (cloned AD4 fragment of CMV AD169 envelope glycoprotein B) (human cytomegalovirus strain AD169, UniProt P06473 112-438)
- T1 construct: also called antigenic domain 4
- measurement protocol: SPR (Biacore T200), antibody captured on anti-human IgG CM5 chip, AD4 polypeptide as analyte, 1:1 model
measure name: koff (s⁻¹)
Report the figure in s⁻¹ without appending any unit label.

# lookup: koff of C15 (antibody, V domains shown, Human IgG, transiently expressed in HEK293) VH: EMQLLESGGGLVQPGGSLRVSCAASGFTFSSHAMSWVRQAPGKGLEWVSSISRSGDNTFYADSVKGRFTISRDNIKSTVYLQMNSLRAEDTAVYFCASRYTEGDSVWYFDVWGRGTLVTVSS VL: EVVLTQSPATLSVSAGDRATLSCRASQSVSRDLAWYQQKPGQAPRLLIYGASTRATDIPVRFSGSGSGTEFSLTISSLQSEDFAVYYCHQYKHWPRTFGQGTKVEIKR
0.00234

# lookup: koff of C9 (antibody, V domains shown, Human IgG, transiently expressed in HEK293) VH: QVQLQESGPGLVKPLETLSLTCTVSGGSISSGSFYWTWIRQHPGKGLEWIGYIHSSGTTYYNPSLKSRLNISRDTSKNQFTLKLSSVTAADTAVYYCAKEIIQWPRRWFDPWGQGTLVTVSS VL: QSVLTQPPSVSAAPGQKVTISCSGSRSNIAKNYVYWYQQLPGTAPKLLIYDTNKRPSGIPDRFSGSKSGTSATLAITGLQTGDEADYYCGTWDSSLKTAIFFGGGTTVTVLG
0.00238
